Reported normalized RNA/DNA level with ligand (log10) values for the following variants.
B1: library; a variant is named by its letters at N, in order (parent)
chain: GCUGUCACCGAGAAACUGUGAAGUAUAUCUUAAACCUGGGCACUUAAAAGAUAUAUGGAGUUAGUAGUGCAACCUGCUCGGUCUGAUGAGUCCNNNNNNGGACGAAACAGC

# Variants of: B1
# TEST_DETAILS: normalized RNA/DNA level with ligand (relative to sTRSVctl = 100) (log10 (% of sTRSVctl)); HEK293T; ligand: cyclic di-GMP (c-di-GMP-II aptamer); ligand concentration (+) RNA-Seq: 1 mM; higher = less ribozyme self-cleavage, higher mRNA level
# ASSAY_CONTEXT: reporter: mCherry (pCS4076), ligand present: yes

Sample records with normalized RNA/DNA level with ligand (log10):
{"SEQ": "GCUGUCACCGAGAAACUGUGAAGUAUAUCUUAAACCUGGGCACUUAAAAGAUAUAUGGAGUUAGUAGUGCAACCUGCUCGGUCUGAUGAGUCCGGUCUUGGACGAAACAGC", "TEST_RESULT": 1.79}
{"SEQ": "GCUGUCACCGAGAAACUGUGAAGUAUAUCUUAAACCUGGGCACUUAAAAGAUAUAUGGAGUUAGUAGUGCAACCUGCUCGGUCUGAUGAGUCCCUACCAGGACGAAACAGC", "TEST_RESULT": 1.79}

*Q* I have this variant here, "GCUGUCACCGAGAAACUGUGAAGUAUAUCUUAAACCUGGGCACUUAAAAGAUAUAUGGAGUUAGUAGUGCAACCUGCUCGGUCUGAUGAGUCCUCAGCAGGACGAAACAGC" , and I need its recorded normalized RNA/DNA level with ligand (log10).
*A* 1.82

*Q* Try the variant "GCUGUCACCGAGAAACUGUGAAGUAUAUCUUAAACCUGGGCACUUAAAAGAUAUAUGGAGUUAGUAGUGCAACCUGCUCGGUCUGAUGAGUCCGGGACCGGACGAAACAGC"
*A* 1.9

*Q* "GCUGUCACCGAGAAACUGUGAAGUAUAUCUUAAACCUGGGCACUUAAAAGAUAUAUGGAGUUAGUAGUGCAACCUGCUCGGUCUGAUGAGUCCAAUACCGGACGAAACAGC" ?
*A* 1.86

*Q* Subsequent entry: "GCUGUCACCGAGAAACUGUGAAGUAUAUCUUAAACCUGGGCACUUAAAAGAUAUAUGGAGUUAGUAGUGCAACCUGCUCGGUCUGAUGAGUCCUAACAAGGACGAAACAGC"
*A* 1.83

These entries and their values trace back to the supplement of paper PMC6757056.
